Test system: NCI-H522 lung
Measurement Notes: NCI tumour cell line growth inhibition, 48 h; in the data active = GI50 below about 0.43 µM; inactive = the rest
Possible outcomes: active, inactive

{"Molecule": "COc1ccc2nc(C)cc(Sc3nc4ccccc4s3)c2c1", "Test Target": "NCI-H522 lung", "Label Value": "inactive"}
{"Molecule": "O=C1C(N2CCN(CCOCCO)CC2)=C(Cl)C(=O)c2ncccc21", "Test Target": "NCI-H522 lung", "Label Value": "inactive"}
{"Molecule": "CN1CCN(Cc2ccc(NC(=O)c3[nH]ncc3Nc3ncnc4[nH]ccc34)cc2)CC1", "Test Target": "NCI-H522 lung", "Label Value": "active"}
{"Molecule": "CN(C)CCN1C(=O)c2cccc3c(/C=C/CN4C(=O)c5cccc6cccc(c56)C4=O)ccc(c23)C1=O", "Test Target": "NCI-H522 lung", "Label Value": "inactive"}
{"Molecule": "OCCCCC#Cc1ccccc1C#Cc1cccnc1", "Test Target": "NCI-H522 lung", "Label Value": "inactive"}
{"Molecule": "CCCCC#Cc1c(I)n(C2OC(CO[Si](C)(C)C(C)(C)C)C3OC(C)(C)OC32)c(=O)n(C(=O)c2ccccc2)c1=O (stereo not given)", "Test Target": "NCI-H522 lung", "Label Value": "inactive"}
{"Molecule": "CC12OC(C(=O)C13CC3)C1C(=O)c3c(O)ccc(O)c3C(=O)C12 (stereo not given)", "Test Target": "NCI-H522 lung", "Label Value": "inactive"}
{"Molecule": "Cc1cc(=O)[nH]c(N/N=C/c2ccccc2O)n1", "Test Target": "NCI-H522 lung", "Label Value": "inactive"}
{"Molecule": "Nc1c(C(=O)c2cccc(C(O)CO)c2)cnn1-c1ccc(F)cc1 (stereo not given)", "Test Target": "NCI-H522 lung", "Label Value": "inactive"}
{"Molecule": "C=C(C(=O)OC)[C@@H]1CC2OC1C(=O)C(C)CCC/C(C)=C/CC[C@@]2(C)O (stereo not given in full)", "Test Target": "NCI-H522 lung", "Label Value": "inactive"}

----------
System: HCC-2998 colon
Measurement Notes: NCI tumour cell line growth inhibition, 48 h; in the data active = GI50 below about 0.43 µM; inactive = the rest
Possible outcomes: active, inactive

{"Compound": "COc1cc(Cc2c(C)cc(OC)c3[nH]c4ccccc4c23)cc2c1[nH]c1ccccc12", "Label Value": "inactive"}
{"Compound": "Cc1c(Nc2nccc3cc(CN4CC[C@@H](O)C4)cnc23)cccc1-c1cccc(-c2nc3cc(CN4CC[C@@H](C(=O)O)C4)cc(C#N)c3o2)c1C", "Label Value": "inactive"}
{"Compound": "CC12OC(C(=O)C13CC3)C1C(=O)c3c(O)ccc(O)c3C(=O)C12 (stereo not drawn)", "Label Value": "inactive"}
{"Compound": "COc1cc2nc(N3CCC[C@H](NC4=CC(=O)c5ccccc5C4=O)C3)nc(N)c2cc1OC", "Label Value": "inactive"}
{"Compound": "O=C1CS/C(=N/S(=O)(=O)c2ccc(N3N=C4c5ccccc5CC4C3c3cccs3)cc2)N1C(=O)c1ccccc1 (stereo not drawn)", "Label Value": "inactive"}
{"Compound": "CN1CCN(C(=O)c2ccc(NC(=O)Nc3ccc(-c4nc(N5CCOCC5)c5cccn5n4)cc3)cc2)CC1", "Label Value": "active"}
{"Compound": "O=C(Nc1ccc(-n2cc(-c3ccncc3)c(-c3ccc(O)c(Cl)c3)n2)cc1)c1ccc(Cl)c(C(F)(F)F)c1", "Label Value": "inactive"}
{"Compound": "Cc1nn(C)c2ncnc(N/N=C/c3cccc(O)c3O)c12", "Label Value": "inactive"}

----------
Test system: PC-3 prostate
Measurement Notes: NCI tumour cell line growth inhibition, 48 h

{"Molecule": "Cc1nc(NS(=O)(=O)c2ccc(NCN3C(=O)c4ccccc4C3=O)cc2)oc1C", "GI50": "> 100 µM"}
{"Molecule": "COC1=C(OC)C(=O)C(C/C=C(\\C)CC/C=C(\\C)CC/C=C(\\C)CC/C=C(\\C)CC/C=C(\\C)CC/C=C(\\C)CC/C=C(\\C)CC/C=C(\\C)CC/C=C(\\C)CCC=C(C)C)=C(C)C1=O", "GI50": "> 100 µM"}
{"Molecule": "CCC[CH2][Sn]([CH2]CCC)([CH2]CCC)/[C](=C/[Si](C)(C)c1ccccc1)c1ccc2c(c1)OCO2", "GI50": "31.4 µM"}
{"Molecule": "CN1CCN(CCCOc2ccc3nc(Nc4ccc(F)c(F)c4)ccc3c2)CC1", "GI50": "1.72 µM"}
{"Molecule": "Fc1ccc2c(c1)C1=C(CCC2)C(c2ccc(Cl)cc2)NC(=S)N1 (stereo not given)", "GI50": "17.6 µM"}
{"Molecule": "N#C/C(=C/N1CCN(C(=O)c2ccco2)C1=S)C(=O)Nc1ccc(Cl)cc1", "GI50": "18.9 µM"}
{"Molecule": "OCCCCC#Cc1ccccc1C#Cc1cccnc1", "GI50": "36.3 µM"}
{"Molecule": "Cc1ccc(S(=O)(=O)n2cc([C@@]3(O)C[C@H](CSC#N)OC3=O)c3ccccc32)cc1", "GI50": "17.8 µM"}
{"Molecule": "CCN1CCN(c2cc(C(=O)Nc3cccc(Nc4ccc5c(OC)cccc5n4)c3)cc(C(F)(F)F)c2)CC1", "GI50": "0.805 µM"}
{"Molecule": "CC12OC(C(=O)C13CC3)C1C(=O)c3c(O)ccc(O)c3C(=O)C12 (stereo not given)", "GI50": "16.5 µM"}

----------
Test system: A498 renal
Measurement Notes: NCI tumour cell line growth inhibition, 48 h
Observable: TGI (µM)

{"Given Smiles": "Cc1nc2ccc(Cl)cc2c2c1CCO2", "Observable": "TGI", "Operator Symbol": ">", "Readout Value": 100}
{"Given Smiles": "CC(=O)c1c[nH]c2ccc(-c3ccnc(Nc4ccc(NC(=O)C5CCCC5)c(CN5CCOCC5)c4)n3)cc12", "Observable": "TGI", "Operator Symbol": "=", "Readout Value": 0.0558}
{"Given Smiles": "COc1ccc(/C=c2\\[nH]c3nc(=O)c(N4CCCCC4)c(N)n3c2=O)cc1", "Observable": "TGI", "Operator Symbol": ">", "Readout Value": 100}
{"Given Smiles": "N/N=C(/N)SCCCCCCCCCCS/C(N)=N/N", "Observable": "TGI", "Operator Symbol": "=", "Readout Value": 43.8}

----------
System: IGROV1 ovarian
Measurement Notes: NCI tumour cell line growth inhibition, 48 h

{"Compound": "COC1=C(OC)C(=O)C(C/C=C(\\C)CC/C=C(\\C)CC/C=C(\\C)CC/C=C(\\C)CC/C=C(\\C)CC/C=C(\\C)CC/C=C(\\C)CC/C=C(\\C)CC/C=C(\\C)CCC=C(C)C)=C(C)C1=O", "TGI": "> 100 µM"}
{"Compound": "Cc1ccc(S(=O)(=O)n2cc([C@@]3(O)C[C@H](CSC#N)OC3=O)c3ccccc32)cc1", "TGI": "22.4 µM"}
{"Compound": "CC(C)(C)c1ccc(C2CC(=O)C3=C(C2)Nc2ccccc2N(C(=O)c2ccccc2Cl)C3c2ccc(F)cc2)cc1 (stereo unspecified)", "TGI": "> 100 µM"}
{"Compound": "c1ccc2c[n+](CCCC[n+]3ccc4ccccc4c3)ccc2c1", "TGI": "> 100 µM"}
{"Compound": "O=S(=O)(/N=S(/Nc1ccccc1)C(F)(F)Cl)c1ccccc1 (stereo unspecified)", "TGI": "> 100 µM"}
{"Compound": "O=c1cc(N2CCOCC2)n2c(ccc3ccccc32)n1", "TGI": "> 100 µM"}
{"Compound": "CSc1nnc(SCc2nn3c(=O)cc(C)nc3s2)s1", "TGI": "> 100 µM"}
{"Compound": "Cc1nc(C)c(N2CCN(CN)CC2)c(=O)[nH]1", "TGI": "> 100 µM"}
{"Compound": "O=c1cc(-c2ccccc2)oc2c1ccc1[nH]c3ccccc3c(=O)c12", "TGI": "> 100 µM"}
{"Compound": "COC(=O)CCC(=O)NC1=C(Nc2ccccc2)C(=O)c2ccccc2C1=O", "TGI": "26 µM"}
{"Compound": "Cc1cc(Cl)cc2c1NC(=O)C2(O)CC(=O)c1ccc(Br)cc1 (stereo unspecified)", "TGI": "> 100 µM"}
{"Compound": "CC(C)=Cc1cc(C)c2ccc(C)c3c2c1C(C)=C(O)C3=O", "TGI": "71.6 µM"}
{"Compound": "C=C(C(=O)OC)[C@@H]1CC2OC1C(=O)C(C)CCC/C(C)=C/CC[C@@]2(C)O (stereo partly specified)", "TGI": "25.4 µM"}
{"Compound": "O=c1[nH]nc(-c2ccccc2)c2[nH]c3c(c12)Cc1ccccc1-3", "TGI": "> 100 µM"}
{"Compound": "CC(C)=Cc1cc(CCC/C(C)=C/Cc2c(O)cc(C)c(C(=O)O)c2O)co1", "TGI": "> 100 µM"}
{"Compound": "O=C1OCC2=C1C(c1cccc(C(F)(F)F)c1)c1cc3c(cc1N2CCO)OCCO3 (stereo unspecified)", "TGI": "> 33.3 µM"}
{"Compound": "CC1CCCC(C#N)(NOC2=NCCN2)C1 (stereo unspecified)", "TGI": "> 100 µM"}
{"Compound": "CC12OC(C(=O)C13CC3)C1C(=O)c3c(O)ccc(O)c3C(=O)C12 (stereo unspecified)", "TGI": "29.7 µM"}
{"Compound": "COc1cc(C2c3cc4c(cc3OC(O)C2C)OCO4)cc(OC)c1OC (stereo unspecified)", "TGI": "51.1 µM"}
{"Compound": "C=CCC12CC(=O)CCC1c1ccc(OC)cc1C2=O (stereo unspecified)", "TGI": "> 100 µM"}
{"Compound": "CC(=O)OCC1OC(SC2=NC(=O)CS2)C(OC(C)=O)C(OC(C)=O)C1OC(C)=O (stereo unspecified)", "TGI": "> 100 µM"}
